Would you kindly list Glycan Array STn Specificity for each of these molecules?
- test_method_notes: Glycan array STn specificity and anti-STn antibody group assignment
- Assay type: binding
- setup_conditions: summary table
Hi! Could you send only the number? It should be in %, unit omitted.

Lab book: Glycan Array STn Specificity of 10A5: anti-STn mouse monoclonal, IgG2c κ, from mouse #4406; VH SEQ ID NO: 6, VL SEQ ID NO: 7 (antibody, V domains shown) VH: QVQLKESGPGLVAPSQSLSITCTVSGFSLTSYGVSWVRQPPGKGLEWLGVIWGDGSTNYHSSLISRLSISKDNSKSQVFLKLNSLQTDDTATYYCARAFVYWGQGTLVTVSA VL: QIVLTQSPAIMSASPGEKVTMTCSASSSVSYIHWYQQKSGTSPKRWIYDTSKLASGVPARFSGSGSGTSYSLTISSMEAEDAATYYCQQWSSNPPMLTFGAGTKLELK noted as 97

# molecule 8C11: anti-STn mouse monoclonal, IgG2b κ, from mouse #4407; VH SEQ ID NO: 8, VL SEQ ID NO: 9 (antibody, V domains shown) VH: QVQLKESGPGLVAPSQSLSITCTVSGFSLTSYGVSWVRQPPGKGLEWLGVIWGDGSTNYHSALISRLIISKDNSKSQVFLKLNSLQTDDTATYYCTKGFTYWGQGTLVTVSA VL: QIVLTQSPAIMSASPGEKVTMTCSASSSVSYMHWYQQKSGTSPKRWIFDTSKLASGVPARFSGSGSGTSYSLTISSMEAEDAATYYCQQWSSNLLTFGAGTKLELK ; its Glycan Array STn Specificity = 84

Memo: 2D4: anti-STn mouse monoclonal, IgG2b κ, from mouse #4407; VH SEQ ID NO: 10, VL SEQ ID NO: 11 (antibody, V domains shown) VH: QVQLQESGPGLVAPSQSLSITCTVSGFSLISYGVNWVRQPPGKGLEWLGVIWGDGSTNYQSALISRLIISKDNSKSQVFLKLNSLQTDDTATYYCTKGFAYWGQGTLVTVSA VL: QIVLTQSPAIMSASPGEKVTMTCSASSSVSYMHWFQQKSGTSPKRWIYDTSKLASGVPARFSGSGSGTSYSLTISSMEAEDAATYYCQQWSSNLLTFGAGTKLELK , reported Glycan Array STn Specificity: 89

GET /value?item= 18C7: anti-STn mouse monoclonal, IgG2c κ, from mouse #4436; VH SEQ ID NO: 4, VL SEQ ID NO: 5 (antibody, V domains shown) VH: QVTLKESGPGILQPSQTLSLTCSFSGFSLSTFGMGVGWIRQPSGKGLEWLAHIWWDDDKYYNPALKSRLTISKDTSKNQVFLKIANVDTADTATYYCARIAYYYGSERDYWGQGTTLTVSS VL: QIVLTQSPAIMSASPGEKVTMTCSASSSISYMHWYHQKPGTSPKRWIYDTSKLASGVPARFSGSGSGTSYSLTISSMEAEDAATYYCHQRSSYTFGGGTKLEIKR &field=Glycan Array STn Specificity returns 100

For this molecule ( 7G9: anti-STn mouse monoclonal, IgG2b κ, from mouse #4407; VH SEQ ID NO: 12, VL SEQ ID NO: 9 (antibody, V domains shown) VH: QVQLKESGPGLVAPSQNLSITCTVSGFSLTSYGVNWVRQPPGKGLEWLGVIWGDGSTNYHSALISRLIISKENSKSQVFLKLNSLQTNDTATYYCTKGFVYWGQGTLVTVSA VL: QIVLTQSPAIMSASPGEKVTMTCSASSSVSYMHWYQQKSGTSPKRWIFDTSKLASGVPARFSGSGSGTSYSLTISSMEAEDAATYYCQQWSSNLLTFGAGTKLELK ), measured Glycan Array STn Specificity is 79
